Tested on: SNB-75 CNS
Assay: NCI-60 one-dose screen, 48 h (100 = growth as untreated, 0 = no growth, -100 = all killed)
Conditions: 10 µM unless noted
The panel holds about 83,000 compounds, 20% with a hit somewhere; the sample as a whole holds those more often.
Readout Name: growth (%)
A number alone suffices; assume %.

// known answers, use as guide
O=C(/C=C/c1cccs1)c1ccc(Cl)nc1 = 95.2
O=C(Cn1c2c(c3ccccc31)CCCC2)Nc1ccc(-c2nc3ccccc3s2)cc1 = 106
COC(=O)/C(CCC=C(C)C)=C1\[C@@H](OC(C)=O)C[C@@]2(C)[C@H]1C[C@@H](O)[C@H]1[C@@]3(C)CC[C@H](NCCN)[C@@H](C)[C@@H]3CC[C@@]12C = 73

Input line: Give the measured growth of `CC1(C)c2[nH]c3ccccc3c2C[C@]2(C)[C@H]3CC=C4[C@@H]5C[C@@](C)(C(N)=O)CC[C@]5(C)CC[C@@]4(C)[C@]3(C)CC[C@@H]12` .
Output line: 101

----------
Tested on: NCI-H322M lung
Experiment: NCI-60 one-dose screen, 48 h
Settings: 10 µM unless noted
About 83,000 compounds went through this panel and 20% of them were active in at least one assay; those are over-represented in the sample as a whole. The source made the active and inactive calls. How the source made its calls: active means growth percent below 10; inactive means the rest.
Would you mind answering with one of these outcomes? 1 (yes) = active, 0 (no) = inactive

Recorded results for 5 compounds are shown here.
CN1CCN(c2ccc(NC(=O)c3cncnc3Nc3ccc(OCc4ccccn4)c(Cl)c3)cc2)CC1 = 0 (no)
C#Cc1cccc(Nc2ncnc3ccc(-c4cnc(N)nc4)cc23)c1 = 1 (yes)
COc1ccc2c3c([nH]c2c1)C(=O)c1nc(C)ccc1C3=O = 0 (no)
c1ccc(C2=NN[C@H](c3cn(-c4ccccc4)nc3-c3ccccc3)C2)cc1 = 0 (no)
COc1ccc(C(=O)C2C(c3ccc(OC)cc3)CN(C)C23C(=O)Nc2ccccc23)cc1 (stereo unspecified) = 0 (no)

Input line: Which outcome did this test record for the compound `N=C(N)c1ccc(-c2ccc(-c3cc(Cl)cc(Cl)c3)o2)o1` ?
Output line: 1 (yes)

----------
Reported growth is given for each of the following compounds.
Tested on: SF-539 CNS
Assay: NCI-60 one-dose screen, 48 h (100 = growth as untreated, 0 = no growth, -100 = all killed)
Settings: 10 µM unless noted
This is part of a sample that, as a whole, favours compounds with a hit. Of some 83,000 tested, about 20% had one in any assay.
# number only, unit % dropped from output

Worked cases, growth given:
O=C(NNc1nccc(Nc2ccc(S(=O)(=O)Nc3ccncc3)cc2)n1)c1ccccc1 = 115
CCOC(=O)Cn1c(O)c(N=Nc2ccc(S(N)(=O)=O)cc2)c2cc(Br)ccc21 = 16
COc1ccc(C(=O)C2C(c3ccc(OC)cc3)CN(C)C23C(=O)Nc2ccccc23)cc1 (centres undefined) = 104

Input line: Field request: growth | item: CCC(C)N(c1ccc(Cl)cc1)c1nc(-c2ccc(Br)cc2)cs1 (centres undefined)
Output line: 101

Input line: So what does the record say about growth for `CC(C)OC(=O)c1ccc2[nH]c(O)c(C(=Nc3ccc(N(C)C(=O)CN4CCN(C)CC4)cc3)c3ccccc3)c2c1` ?
Output line: -95.6

Input line: # input compound: `C=CCn1cc(-c2nc3ccccc3s2)c2cc(-c3ccc4c5c(cccc35)C(=O)N(N)C4=O)ccc21` ; wanted: its growth
Output line: 101

Input line: I have this compound here, `COc1ccc2cc(-c3ccc(NC(C)=O)c(=O)o3)ccc2c1` , and I need its recorded growth.
Output line: 96.7

Input line: Need growth, item `CS(=O)(=O)c1cccc(-c2c(-c3cccc(OS(N)(=O)=O)c3)nc3sccn23)c1`
Output line: 93.5

Input line: What value of growth has been recorded for this entry: `Oc1c(Cl)cc(Cl)c2ccc(Cn3cc(-c4cc(F)cc(F)c4)nn3)nc12`
Output line: 65.8
